Reported IC50 values for a set of molecules
TARGET: human 11β-HSD1 (Homo sapiens)
Construct: The obtained PCR products of about 0.9 kbp, 1.2 kbp, and 0.9 kbp were subcloned into an expression vector pcDNA3.1+/Zeo; made in house
ASSAY INFO: Assay of enzyme inhibitory activity, human 11β-HSD1 (lysate of stably expressing HEK293 cells, cortisol ELISA)
Format: biochemical
CONDITION PARAMETERS: Table 1; human 11β-HSD1, cell lysate, 100 nmol/L substrate, 37° C. 1 hour
Output spec: scalar in µM, unitless text.

>  <MOLECULE>
CC1=CC2(CCN(C(=O)COc3ccccc3C(F)(F)F)CC2)c2ccccc21

>  <IC50 [µM]>
0.066

$$$$
>  <MOLECULE>
O=C(COc1ccccc1C(F)(F)F)N1CCC2(CC1)C(C1CC1)=Cc1ccccc12

>  <IC50 [µM]>
0.088

$$$$
>  <MOLECULE>
CC1Cc2ccccc2C12CCN(C(=O)COc1ccccc1C(F)(F)F)CC2 (stereo not shown)

>  <IC50 [µM]>
0.12

$$$$
>  <MOLECULE>
CC1=Cc2ccccc2C12CCN(C(=O)COc1ccccc1C(F)(F)F)CC2

>  <IC50 [µM]>
0.043

$$$$
>  <MOLECULE>
O=C(COc1ccccc1C(F)(F)F)N1CCC2(CCc3ccccc32)CC1

>  <IC50 [µM]>
0.025

$$$$
>  <MOLECULE>
O=C(COc1ccccc1C(F)(F)F)N1CCC2(CC1)C(Br)=Cc1ccccc12

>  <IC50 [µM]>
0.049

$$$$
>  <MOLECULE>
CC(C)C1=Cc2ccccc2C12CCN(C(=O)COc1ccccc1C(F)(F)F)CC2

>  <IC50 [µM]>
0.34

$$$$
>  <MOLECULE>
O=C(COc1ccccc1C(F)(F)F)N1CCC2(CC1)C(=O)Cc1ccccc12

>  <IC50 [µM]>
0.077

$$$$

Request: Return IC50 (reported value) for this molecule: `O=C(COc1ccccc1C(F)(F)F)N1CCC2(C=Cc3ccccc32)CC1`
Response: 0.029

Request: Supply reported IC50 belonging to this molecule: `CCc1ccccc1OCC(=O)N1CCC2(C=Cc3ccccc32)CC1`
Response: 0.72

Request: Kindly indicate its recorded IC50. Item: `O=C1CC2(CCN(C(=O)COc3ccccc3C(F)(F)F)CC2)c2ccccc21`
Response: 1

Request: Fill in reported IC50 for this entry: `CCC1=Cc2ccccc2C12CCN(C(=O)COc1ccccc1C(F)(F)F)CC2`
Response: 0.048

----------
# maps each entry to its IC50
TARGET: human 11β-HSD1 (Homo sapiens, UniProt P28845)
Construct: The obtained PCR products of about 0.9 kbp, 1.2 kbp, and 0.9 kbp were subcloned into an expression vector pcDNA3.1+/Zeo; made in house
Sequence (P28845 whole entry): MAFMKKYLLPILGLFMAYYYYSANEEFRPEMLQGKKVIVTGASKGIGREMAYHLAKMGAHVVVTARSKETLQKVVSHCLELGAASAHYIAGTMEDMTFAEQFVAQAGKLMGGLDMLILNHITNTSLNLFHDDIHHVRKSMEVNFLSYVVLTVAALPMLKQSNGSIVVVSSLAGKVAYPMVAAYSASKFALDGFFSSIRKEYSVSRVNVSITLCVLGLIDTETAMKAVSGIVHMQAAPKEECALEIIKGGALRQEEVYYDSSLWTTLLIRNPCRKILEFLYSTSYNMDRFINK
ASSAY INFO: Assay of enzyme inhibitory activity, human 11β-HSD1 (lysate of stably expressing HEK293 cells, cortisol ELISA)
Format: biochemical
CONDITION PARAMETERS: Table 1; human 11β-HSD1, cell lysate, 100 nmol/L substrate, 37° C. 1 hour
Please respond with the number in µM and leave the unit unwritten.

>  <COMPOUND>
O=C(COc1ccccc1I)N1CCC2(C=Cc3ccccc32)CC1 [Example 4]

>  <TARGET>
human 11β-HSD1 (Homo sapiens, UniProt P28845)

>  <IC50 (µM)>
0.11

$$$$
>  <COMPOUND>
CCCC1=Cc2ccccc2C12CCN(C(=O)COc1ccccc1C(F)(F)F)CC2 [Example 18]

>  <TARGET>
human 11β-HSD1 (Homo sapiens, UniProt P28845)

>  <IC50 (µM)>
0.24

$$$$

Request: Give IC50 for the following compound: O=C(COc1ccccc1C(F)(F)F)N1CCC2(CC1)C(Cl)=Cc1ccccc12 [Example 22]
Response: 0.03

Request: Complete the entry with IC50 for O=C(COc1ccccc1C(F)(F)F)N1CCC2(CC1)c1ccccc1CC2O (stereo not shown) [Example 11]
Response: 0.23
